Entry source: the supplement of paper PMC7877785

- method_description: self-splicing fitness, log relative to wild type (ln ratio); higher = more splicing; Tetrahymena group I intron in knt gene, E. coli kanamycin selection, DiMSum; sequences stand for … in CUCUCU…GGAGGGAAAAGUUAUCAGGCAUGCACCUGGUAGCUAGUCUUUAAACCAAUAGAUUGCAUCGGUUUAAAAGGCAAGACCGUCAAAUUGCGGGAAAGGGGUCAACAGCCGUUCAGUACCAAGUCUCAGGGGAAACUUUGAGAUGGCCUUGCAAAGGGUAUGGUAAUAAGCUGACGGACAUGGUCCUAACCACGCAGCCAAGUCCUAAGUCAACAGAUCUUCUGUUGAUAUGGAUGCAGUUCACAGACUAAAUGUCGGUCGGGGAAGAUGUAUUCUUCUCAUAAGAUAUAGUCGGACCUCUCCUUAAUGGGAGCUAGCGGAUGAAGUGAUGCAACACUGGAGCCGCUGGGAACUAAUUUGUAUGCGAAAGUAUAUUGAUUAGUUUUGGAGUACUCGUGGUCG;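 note: selection with 25 µg/mL kanamycin versus none on LB agar overnight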
- condition_set: 30 °C
Decision: self-splicing fitness (ln) compared against -2; not below it gives y, below it gives n.

Incoming: Is self-splicing fitness (ln) for `UUAGAGCAAUAUUACGUCGG` at or above -2?
Outgoing: y

====

- method_description: self-splicing fitness, log relative to wild type (ln ratio); higher = more splicing; Tetrahymena group I intron in knt gene, E. coli kanamycin selection, DiMSum; sequences stand for … in CUCUCU…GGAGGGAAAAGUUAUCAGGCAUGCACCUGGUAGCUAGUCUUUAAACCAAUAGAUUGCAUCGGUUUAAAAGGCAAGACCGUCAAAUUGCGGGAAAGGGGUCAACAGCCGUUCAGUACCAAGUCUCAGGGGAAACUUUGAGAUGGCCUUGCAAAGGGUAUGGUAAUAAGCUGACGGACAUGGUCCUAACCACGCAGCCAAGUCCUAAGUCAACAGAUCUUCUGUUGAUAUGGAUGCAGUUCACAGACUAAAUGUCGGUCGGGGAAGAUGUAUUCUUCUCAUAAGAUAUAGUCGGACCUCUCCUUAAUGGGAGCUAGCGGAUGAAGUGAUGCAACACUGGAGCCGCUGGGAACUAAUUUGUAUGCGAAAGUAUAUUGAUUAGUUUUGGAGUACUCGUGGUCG
- condition_set: 30 °C
readout: self-splicing fitness (ln)
// print number alone

Solved entries (count: 2):
{"seq": "AAAAAGCAAUAUUACGGACG", "self-splicing fitness (ln)": -0.378}
{"seq": "CAGCAGCAAUAUUACGAAUC", "self-splicing fitness (ln)": -2.38}

Incoming: self-splicing fitness (ln) lookup needed for `GUCGAGCAAUAUUACGUUUG` , thanks.
Outgoing: -2.54

Incoming: Lookup `CCUGAGCAAUAUUACGGGGU`
Outgoing: -3.44

Incoming: Consider next the sequence `GAACAGCAAUAUUACGUAAC` in the same way.
Outgoing: -1.12

Incoming: Field entry: `GAACAGCAAUAUUACGCGGU`
Outgoing: -3.6

Incoming: Moving on to the next sequence: `UGUUAGCAAUAUUACGCGUC`
Outgoing: -3.45

Incoming: Same for `GACCAGCAAUAUUACGCAAU`
Outgoing: -0.846

====

- method_description: self-splicing fitness, log relative to wild type (ln ratio); higher = more splicing; Tetrahymena group I intron in knt gene, E. coli kanamycin selection, DiMSum; sequences stand for … in CUCUCU…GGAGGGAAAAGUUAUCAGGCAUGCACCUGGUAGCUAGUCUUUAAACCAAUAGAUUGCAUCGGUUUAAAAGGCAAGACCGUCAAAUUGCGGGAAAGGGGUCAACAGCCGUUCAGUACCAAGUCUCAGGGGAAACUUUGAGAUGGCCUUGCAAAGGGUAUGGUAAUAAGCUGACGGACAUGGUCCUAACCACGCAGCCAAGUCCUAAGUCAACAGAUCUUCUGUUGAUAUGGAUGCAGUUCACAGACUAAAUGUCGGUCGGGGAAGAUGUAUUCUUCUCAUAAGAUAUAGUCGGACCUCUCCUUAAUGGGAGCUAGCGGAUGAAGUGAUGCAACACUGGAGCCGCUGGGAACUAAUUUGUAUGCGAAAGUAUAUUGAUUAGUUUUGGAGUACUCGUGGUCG
- condition_set: 30 °C
# binning rule on self-splicing fitness (ln): lo: < -3; mid: ≥ -3 and < -1; hi: ≥ -1

Known results for sequences:
{"seq": "AUAGAGCAAUAUUACGUAGC", "label": "lo"}
{"seq": "AGCGAGCAAUAUUACGUCUA", "label": "mid"}
{"seq": "GAUCAGCAAUAUUACGCUCA", "label": "hi"}
{"seq": "AUGCAGCAAUAUUACGGUUG", "label": "lo"}
{"seq": "GAUUAGCAAUAUUACGAACU", "label": "hi"}
{"seq": "UUCGAGCAAUAUUACGCUCC", "label": "lo"}

Incoming: Class? Entry: `CUCUAGCAAUAUUACGGAAA`
Outgoing: lo

Incoming: Again, but for `GACAAGCAAUAUUACGGACA`
Outgoing: mid

Incoming: Another sequence to look at: `GCAAAGCAAUAUUACGACUA`
Outgoing: hi

Incoming: Do the same for `CAGGAGCAAUAUUACGUAGA` please
Outgoing: lo

Incoming: // query: `CAAUAGCAAUAUUACGGUUG`
Outgoing: mid
